# credit: patent US10259810B2

- TARGET OR SYSTEM: ΔF508-CFTR (Homo sapiens, UniProt P13569, DEL508-508)
- Construct: host or cells: CFBE41o-, doxycycline-inducible
- Sequence (P13569 with tags, fused parts or gaps DEL508-508): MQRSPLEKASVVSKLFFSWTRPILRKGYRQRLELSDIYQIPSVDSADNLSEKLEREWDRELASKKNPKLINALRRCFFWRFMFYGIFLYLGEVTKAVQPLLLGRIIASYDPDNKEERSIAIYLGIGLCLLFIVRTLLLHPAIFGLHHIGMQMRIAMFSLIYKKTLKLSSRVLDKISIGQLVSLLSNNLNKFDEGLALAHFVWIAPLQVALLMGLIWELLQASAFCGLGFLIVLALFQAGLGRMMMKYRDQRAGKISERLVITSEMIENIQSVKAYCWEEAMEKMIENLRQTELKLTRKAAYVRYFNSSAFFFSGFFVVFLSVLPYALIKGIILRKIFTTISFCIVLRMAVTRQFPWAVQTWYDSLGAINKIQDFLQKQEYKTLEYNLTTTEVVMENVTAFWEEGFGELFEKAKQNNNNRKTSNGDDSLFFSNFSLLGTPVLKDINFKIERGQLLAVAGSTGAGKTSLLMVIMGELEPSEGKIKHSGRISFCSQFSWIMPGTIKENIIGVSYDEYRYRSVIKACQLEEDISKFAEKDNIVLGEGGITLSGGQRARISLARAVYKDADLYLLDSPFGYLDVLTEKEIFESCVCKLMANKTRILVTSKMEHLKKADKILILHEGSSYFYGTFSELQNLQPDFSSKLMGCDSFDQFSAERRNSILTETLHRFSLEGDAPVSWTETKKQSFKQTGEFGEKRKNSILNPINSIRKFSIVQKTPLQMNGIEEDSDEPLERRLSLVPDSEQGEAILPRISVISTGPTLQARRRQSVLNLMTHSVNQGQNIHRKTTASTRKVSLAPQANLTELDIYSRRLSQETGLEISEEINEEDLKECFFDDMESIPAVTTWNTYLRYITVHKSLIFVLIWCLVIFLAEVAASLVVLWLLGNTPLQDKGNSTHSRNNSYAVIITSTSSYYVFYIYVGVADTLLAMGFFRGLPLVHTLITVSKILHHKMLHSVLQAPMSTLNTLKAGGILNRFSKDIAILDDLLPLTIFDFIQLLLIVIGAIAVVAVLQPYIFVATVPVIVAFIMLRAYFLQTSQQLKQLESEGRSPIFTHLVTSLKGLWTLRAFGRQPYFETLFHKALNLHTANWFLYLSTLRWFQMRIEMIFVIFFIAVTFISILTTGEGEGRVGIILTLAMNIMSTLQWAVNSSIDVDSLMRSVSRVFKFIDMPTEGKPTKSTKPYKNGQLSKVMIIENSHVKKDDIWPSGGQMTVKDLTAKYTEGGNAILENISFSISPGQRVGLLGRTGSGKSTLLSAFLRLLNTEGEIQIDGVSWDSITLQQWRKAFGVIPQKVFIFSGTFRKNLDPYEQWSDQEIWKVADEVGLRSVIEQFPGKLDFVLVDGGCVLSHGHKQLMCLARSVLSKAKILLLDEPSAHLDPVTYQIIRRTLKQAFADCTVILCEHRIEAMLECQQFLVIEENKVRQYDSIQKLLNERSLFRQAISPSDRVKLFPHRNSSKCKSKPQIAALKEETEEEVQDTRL
- ASSAY REMARKS: CFTR cell surface levels using HRP-tagged ΔF508-CFTR expressing CFBE cells, in the presence of a co-corrector
- Format: cell-based
PARAMETER: EC50

>>> observed_result("CCS(=O)(=O)NC(=O)c1cc(N2CCC(N3CCOCC3)CC2)c2c(C(C)C)nn(-c3ccc(F)cc3)c2n1")
"90.6 nM"
>>> observed_result("COCC1CCN(c2cc(C(=O)NS(=O)(=O)N3CCC(N4CCCC4)CC3)nc3c2c(C2CCC2)nn3-c2ccccc2)CC1")
"196 nM"
>>> observed_result("CN(C)S(=O)(=O)NC(=O)c1cc(N2CCC(N3CCCCC3)CC2)c2c(C3CCC3)nn(-c3ccccc3)c2n1")
"82 nM"
>>> observed_result("O=C(NS(=O)(=O)CCCN1CCOCC1)c1cc(N2CCC[C@@H](CO)C2)c2c(C3CCC3)nn(-c3ccccc3)c2n1")
"287 nM"
>>> observed_result("CC(C)c1nn(-c2ccc(F)cc2)c2nc(C(=O)NS(=O)(=O)N(C)C)cc(N3CCC(N4CCOCC4)CC3)c12")
"201 nM"
>>> observed_result("CC(C)c1nn(-c2ccc(F)cc2)c2nc(C(=O)NS(=O)(=O)C3CC3)cc(N3CCC(N4CCOCC4)CC3)c12")
"159 nM"
>>> observed_result("CCS(=O)(=O)NC(=O)c1cc(N2CCC(N3CCCCC3)CC2)c2c(C3CCC3)nn(-c3ccccc3)c2n1")
"162 nM"

* * *

Listed next: entries and their corresponding % Activation.
- TARGET OR SYSTEM: ΔF508-CFTR (Homo sapiens, UniProt P13569, DEL508-508)
- Construct: host or cells: CFBE41o-, doxycycline-inducible
- ASSAY REMARKS: CFTR cell surface levels using HRP-tagged ΔF508-CFTR expressing CFBE cells, intrinsic corrector capacity
- Format: cell-based
- Parameters: concentration or dose not given beside the values
- REPORTED CONDITIONS: HRP-tagged ΔF508-CFTR expressing CFBE41o- cells; compound alone (intrinsic corrector capacity); 20 hours at 33° C.
- Excerpt: Measuring CFTR Cell Surface Levels Using HRP-Tagged ΔF508-CFTR Expressing CFBE Cells The HRP-tagged ΔF508-CFTR cell assay measures the expression of CFTR-ΔF508 at the plasma membrane. […] When HRP-tagged ΔF508-CFTR is present at the plasma membrane, the HRP enzyme activity can be measured. The amount of CFTR-ΔF508 that can be rescued to the plasma membrane is correlated with the amount of functional enzyme that can be measured. […]
PARAMETER: % Activation

>>> observed_result("CS(=O)(=O)NC(=O)c1cc(N2CCC(CO)CC2)c2c(C3CCC3)nn(-c3ccccc3)c2n1")
"182.7%"
>>> observed_result("COCC1CCN(c2cc(C(=O)NS(=O)(=O)N3CCOCC3)nc3c2c(C2CCC2)nn3-c2ccccc2)CC1")
"222.9%"
>>> observed_result("CS(=O)(=O)NC(=O)c1cc(-c2ccc(N3CCC(C#N)CC3)nc2)c2c(OC3COC3)nn(-c3ccccc3)c2n1")
"119.9%"
>>> observed_result("CC(C)c1nn(-c2ccc(F)cc2)c2nc(C(=O)NS(C)(=O)=O)cc(OCCCN3CCOCC3)c12")
"217.9%"
